TARGET: ABCB1 (P-glycoprotein) in Colo 320 colonic adenocarcinoma cells (Homo sapiens, UniProt P08183)
Sequence (P08183 whole entry): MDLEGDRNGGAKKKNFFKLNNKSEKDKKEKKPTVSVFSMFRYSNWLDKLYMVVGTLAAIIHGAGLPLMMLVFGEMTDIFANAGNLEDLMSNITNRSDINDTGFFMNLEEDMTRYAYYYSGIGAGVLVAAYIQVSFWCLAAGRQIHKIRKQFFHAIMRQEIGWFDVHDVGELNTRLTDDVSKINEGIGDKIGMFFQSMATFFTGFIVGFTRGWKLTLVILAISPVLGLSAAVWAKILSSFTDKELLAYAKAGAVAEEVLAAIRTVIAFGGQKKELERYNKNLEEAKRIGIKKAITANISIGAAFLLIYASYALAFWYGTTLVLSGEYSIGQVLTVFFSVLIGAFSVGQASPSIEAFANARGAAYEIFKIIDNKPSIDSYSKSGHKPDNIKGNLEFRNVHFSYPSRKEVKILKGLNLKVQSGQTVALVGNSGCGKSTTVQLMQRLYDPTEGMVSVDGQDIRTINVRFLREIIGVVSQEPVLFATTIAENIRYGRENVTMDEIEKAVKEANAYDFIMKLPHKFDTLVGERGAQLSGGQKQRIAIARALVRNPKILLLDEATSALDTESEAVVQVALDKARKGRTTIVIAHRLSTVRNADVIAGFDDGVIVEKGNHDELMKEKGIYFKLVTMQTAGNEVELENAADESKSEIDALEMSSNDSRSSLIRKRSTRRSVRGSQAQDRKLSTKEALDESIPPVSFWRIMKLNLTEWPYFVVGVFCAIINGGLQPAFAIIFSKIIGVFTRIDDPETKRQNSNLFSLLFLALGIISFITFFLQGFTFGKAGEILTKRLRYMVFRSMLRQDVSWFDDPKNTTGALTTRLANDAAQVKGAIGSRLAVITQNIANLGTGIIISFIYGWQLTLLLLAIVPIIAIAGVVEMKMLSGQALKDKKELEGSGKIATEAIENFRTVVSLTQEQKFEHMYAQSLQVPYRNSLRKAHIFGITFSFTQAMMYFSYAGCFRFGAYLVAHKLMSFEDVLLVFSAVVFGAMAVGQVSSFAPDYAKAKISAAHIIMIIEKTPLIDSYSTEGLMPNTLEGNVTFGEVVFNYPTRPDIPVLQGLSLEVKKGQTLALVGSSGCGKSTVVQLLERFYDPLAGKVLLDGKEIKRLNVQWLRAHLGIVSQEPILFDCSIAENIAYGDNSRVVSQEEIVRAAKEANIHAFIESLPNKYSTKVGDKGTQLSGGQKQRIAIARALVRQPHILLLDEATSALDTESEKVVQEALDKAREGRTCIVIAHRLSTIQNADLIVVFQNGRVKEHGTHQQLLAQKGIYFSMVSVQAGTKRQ
EXPERIMENTAL PROTOCOL: ABCB1 inhibition, rhodamine 123 accumulation by flow cytometry
CONDITION PARAMETERS: 0.2 µM
RESULT TYPE: SSC (Side Scatter Count)

>>> print(df.to_string())
                                   molecule  observed_measurement
0          CC(=O)C[Se]C(=O)c1ccccc1C(F)(F)F                   861
1  CC(=O)C[Se]C(=O)c1ccc(Br)cc1 [K3, Se-(2-Oxopropyl) 4-Bromobenzoselenoate]                   982
2        CC(=O)C[Se]C(=O)c1ccc(C(C)(C)C)cc1                   938
3           CC(=O)C[Se]C(=O)c1cc(F)c(F)cc1F                   853

* * *

Form field: melting point (one value per entry).
RESULT TYPE: melting point

>>> df
                                   compound    result_type  observed_measurement
0             N#CC[Se]C(=O)c1ccccc1C(F)(F)F  melting point           65 to 67 °C
1              N#CC[Se]C(=O)c1ccc(F)c(Cl)c1  melting point           73 to 75 °C
2  N#CC[Se]C(=O)c1cc(C(F)(F)F)cc(C(F)(F)F)c1  melting point           63 to 65 °C
3  N#CC[Se]C(=O)c1ccc(Br)cc1 [N3, Se-(Cyanomethyl) 4-Bromobenzoselenoate]  melting point         105 to 107 °C
4                      N#CC[Se]C(=O)c1cccs1  melting point           50 to 52 °C

* * *

Some molecules, each annotated with its measured SSC (Side Scatter Count).
TARGET: ABCB1 (P-glycoprotein) in Colo 320 colonic adenocarcinoma cells (Homo sapiens, UniProt P08183)
EXPERIMENTAL PROTOCOL: ABCB1 inhibition, rhodamine 123 accumulation by flow cytometry
CONDITION PARAMETERS: 2 µM
RESULT TYPE: SSC (Side Scatter Count)

>>> print(df.to_string())
                                   molecule  observed_measurement
0      CC(=O)C[Se]C(=O)c1cc(F)c(F)cc1F [K8]                  1131
1  CC(=O)C[Se]C(=O)c1ccccc1F [K2, Se-(2-Oxopropyl) 2-Fluorobenzoselenoate]                  1156
2   CC(=O)C[Se]C(=O)c1ccc(C(C)(C)C)cc1 [K7]                  1045
3     CC(=O)C[Se]C(=O)c1ccccc1C(F)(F)F [K4]                  1008
4  CC(=O)C[Se]C(=O)c1ccc(Br)cc1 [K3, Se-(2-Oxopropyl) 4-Bromobenzoselenoate]                  1031
5      CC(=O)C[Se]C(=O)c1ccc(F)c(Cl)c1 [K6]                  1043
6              CC(=O)C[Se]C(=O)c1cccs1 [K1]                  1067
7   CC(=O)C[Se]C(=O)c1cccc(C(F)(F)F)c1 [K5]                  1053

* * *

TARGET: ABCB1 (P-glycoprotein) in Colo 320 colonic adenocarcinoma cells (Homo sapiens)
EXPERIMENTAL PROTOCOL: ABCB1 inhibition, rhodamine 123 accumulation by flow cytometry
CONDITION PARAMETERS: 0.2 µM; rhodamine 123; FAR above 2 considered effective
RESULT TYPE: FAR (fluorescence activity ratio)

>>> df
                                   molecule                                    target  observed_measurement
0  COc1cc2c(cc1OC)CN(CCc1ccc(NC(=O)c3cc(OC)c(OC)cc3NC(=O)c3cnc4ccccc4c3)cc1)CC2 [Tariquidar, reference compound]  ABCB1 (P-glycoprotein) in Colo 320 colonic adenocarcinoma cells (Homo sapiens)                 28.04
1        CC(=O)C[Se]C(=O)c1ccc(C(C)(C)C)cc1  ABCB1 (P-glycoprotein) in Colo 320 colonic adenocarcinoma cells (Homo sapiens)                  1.53
2  CC(=O)C[Se]C(=O)c1ccccc1F [K2, Se-(2-Oxopropyl) 2-Fluorobenzoselenoate]  ABCB1 (P-glycoprotein) in Colo 320 colonic adenocarcinoma cells (Homo sapiens)                  1.41
3          CC(=O)C[Se]C(=O)c1ccccc1C(F)(F)F  ABCB1 (P-glycoprotein) in Colo 320 colonic adenocarcinoma cells (Homo sapiens)                  1.76
4           CC(=O)C[Se]C(=O)c1ccc(F)c(Cl)c1  ABCB1 (P-glycoprotein) in Colo 320 colonic adenocarcinoma cells (Homo sapiens)                  1.48
5  CC(=O)C[Se]C(=O)c1ccc(Br)cc1 [K3, Se-(2-Oxopropyl) 4-Bromobenzoselenoate]  ABCB1 (P-glycoprotein) in Colo 320 colonic adenocarcinoma cells (Homo sapiens)                  3.99
6           CC(=O)C[Se]C(=O)c1cc(F)c(F)cc1F  ABCB1 (P-glycoprotein) in Colo 320 colonic adenocarcinoma cells (Homo sapiens)                  3.38
7                   CC(=O)C[Se]C(=O)c1cccs1  ABCB1 (P-glycoprotein) in Colo 320 colonic adenocarcinoma cells (Homo sapiens)                  1.37
8        CC(=O)C[Se]C(=O)c1cccc(C(F)(F)F)c1  ABCB1 (P-glycoprotein) in Colo 320 colonic adenocarcinoma cells (Homo sapiens)                  1.84

* * *

Test system: Colo 320/MDR-LRP human colonic adenocarcinoma cell line
EXPERIMENTAL PROTOCOL: Cytotoxicity (MTT) on resistant Colo 320 cells
Type: cell-based
CONDITION PARAMETERS: Homo sapiens, COLO 320; 24 h, MTT; read-out: Colo 320 (IC50 µM) Mean
The compounds listed here are annotated with their IC50.

COMPOUND	UNITS	IC50
CC(=O)C[Se]C(=O)c1ccc(F)c(Cl)c1	µM	2.1
CC(=O)C[Se]C(=O)c1ccccc1F [K2, Se-(2-Oxopropyl) 2-Fluorobenzoselenoate]	µM	2.38
N#CC[Se]C(=O)c1ccc(F)c(Cl)c1	µM	5.19
N#CC[Se]C(=O)c1cccs1	µM	7.64
CC(=O)C[Se]C(=O)c1cc(F)c(F)cc1F	µM	2.37
COc1cccc2c1C(=O)c1c(O)c3c(c(O)c1C2=O)C[C@@](O)(C(=O)CO)C[C@@H]3O[C@H]1C[C@H](N)[C@H](O)[C@H](C)O1 [Dox., doxorubicin, reference compound]	µM	7.61

* * *

Test system: resistant Colo 320 colon adenocarcinoma cells expressing the ABCB1 transporter
EXPERIMENTAL PROTOCOL: Checkerboard combination assay with doxorubicin
Assay type: cell-based, human
CONDITION PARAMETERS: ratio 2.8:1; starting conc. 6 µM
RESULT TYPE: Type of Interaction

In [3]: df
Out[3]:
                           cpd_smiles          result_type  observed_measurement
0     CC(=O)C[Se]C(=O)c1ccc(F)c(Cl)c1  Type of Interaction             Synergism
1  CC(=O)C[Se]C(=O)c1cccc(C(F)(F)F)c1  Type of Interaction             Synergism

* * *

The following compounds are listed with their measured SI MRC-5/Colo 205 values.
Test system: Colo 205 human colonic adenocarcinoma cell line
EXPERIMENTAL PROTOCOL: Cytotoxicity (MTT) on sensitive Colo 205 cells
Format: cell-based
CONDITION PARAMETERS: ratio IC50 non-tumour cells / IC50 cancer cells

COMPOUND	TARGET	SI MRC-5/Colo 205
CC(=O)C[Se]C(=O)c1ccc(Br)cc1 [K3, Se-(2-Oxopropyl) 4-Bromobenzoselenoate]	Colo 205 human colonic adenocarcinoma cell line	1.25
CC(=O)C[Se]C(=O)c1ccc(C(C)(C)C)cc1	Colo 205 human colonic adenocarcinoma cell line	1.38
CC(=O)C[Se]C(=O)c1ccc(F)c(Cl)c1	Colo 205 human colonic adenocarcinoma cell line	1.73
CC(=O)C[Se]C(=O)c1cccc(C(F)(F)F)c1	Colo 205 human colonic adenocarcinoma cell line	1.45
CC(=O)C[Se]C(=O)c1cc(F)c(F)cc1F	Colo 205 human colonic adenocarcinoma cell line	1.12
COc1cccc2c1C(=O)c1c(O)c3c(c(O)c1C2=O)C[C@@](O)(C(=O)CO)C[C@@H]3O[C@H]1C[C@H](N)[C@H](O)[C@H](C)O1 [Dox., doxorubicin, reference compound]	Colo 205 human colonic adenocarcinoma cell line	0.79
CC(=O)C[Se]C(=O)c1cccs1	Colo 205 human colonic adenocarcinoma cell line	1.46
